Record form. Attribute: pEC50. Fill in for each entry.
target: Human GLP-1 receptor (Homo sapiens, UniProt P43220); construct: expressed in transfected cells; assay: Measurement of GLP-1 receptor agonist activity (cAMP assay);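 on pEC50: EC50 of cAMP increase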; format: cell-based; details: hGLP-1R/CHO-K1 cells, cAMP increase, 37° C. 1 hour
Sequence (P43220 24-463): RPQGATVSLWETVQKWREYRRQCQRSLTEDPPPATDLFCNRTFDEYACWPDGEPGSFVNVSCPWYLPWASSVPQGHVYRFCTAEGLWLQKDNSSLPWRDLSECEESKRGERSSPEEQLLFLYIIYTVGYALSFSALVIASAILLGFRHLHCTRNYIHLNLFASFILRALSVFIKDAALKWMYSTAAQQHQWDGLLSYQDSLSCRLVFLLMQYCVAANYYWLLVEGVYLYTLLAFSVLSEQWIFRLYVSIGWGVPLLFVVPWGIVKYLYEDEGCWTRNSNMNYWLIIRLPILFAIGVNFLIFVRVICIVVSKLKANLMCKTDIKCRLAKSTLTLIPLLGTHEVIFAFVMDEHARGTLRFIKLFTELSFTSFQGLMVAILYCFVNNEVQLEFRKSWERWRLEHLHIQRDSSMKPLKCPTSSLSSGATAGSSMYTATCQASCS
Give bare numbers, as −log10 of the molar value.

>>> meas_value("O=C(O)c1ccc2nc(CN3CCc4cc(C(F)(F)F)c(OCc5c(F)cccc5F)cc4C3)n(C[C@@H]3CCO3)c2c1 [Compound I-155]")
7.59
>>> meas_value("C[C@H]1c2cc(OCc3ccc(OC(F)F)cc3F)c(C(F)(F)F)cc2CCN1Cc1nc2ccc(C(=O)O)cc2n1C[C@@H]1CCO1 [Compound I-168]")
8.65
>>> meas_value("Cc1csc(COc2cc3c(cc2C(F)(F)F)CCN(Cc2nc4ccc(C(=O)O)nc4n2C[C@@H]2CCO2)[C@H]3C)n1 [Compound I-177]")
8.51
>>> meas_value("C[C@H]1c2cc(OCc3ccc(Cl)cc3Cl)c(C(F)(F)F)cc2CCN1Cc1nc2ccc(C(=O)O)cc2n1C[C@@H]1CCO1 [Compound I-167]")
9.15
>>> meas_value("O=C(O)c1ccc2nc(CN3CCc4cc(C(F)(F)F)c(OCc5ccc(Cl)cc5C(F)(F)F)cc4C3)n(C[C@@H]3CCO3)c2c1 [Compound I-100]")
7.02

Hey, can you go through the list below and give me pEC50 for every item?
1. C[C@H]1c2cc(OCc3cc(F)c(Cl)cc3F)c(C(F)(F)F)cc2CCN1Cc1nc2c(F)cc(C(=O)O)cc2n1C[C@@H]1CCO1 [Compound I-213]
2. O=C(O)c1ccc2nc(CN3CCc4cc(C(F)(F)F)c(OCc5ccc(Cl)cc5F)cc4C3)n(C[C@@H]3CCO3)c2c1F [Compound I-054]
3. COc1cc(Cl)ccc1COc1cc2c(cc1C(F)(F)F)CCN(Cc1nc3ccc(C(=O)O)c(F)c3n1C[C@@H]1CCO1)[C@H]2C [Compound I-196]

Key:
9.44
9.02
9.87

Hey, can you go through the list below and give me pEC50 for every item?
1. Cc1csc(COc2cc3c(cc2C(F)(F)F)CCN(Cc2nc4ccc(C(=O)O)cc4n2C[C@@H]2CCO2)[C@H]3C)n1 [Compound I-173]
2. C[C@H]1c2cc(OCc3ccc(Cl)cc3Cl)c(C(F)(F)F)cc2CCN1Cc1nc2ccc(C(=O)O)nc2n1C[C@@H]1CCO1 [Compound I-118]
3. COc1cc(Cl)ccc1COc1cc2c(cc1C(F)(F)F)CCN(Cc1nc3ccc(C(=O)O)cc3n1C[C@@H]1CCO1)[C@H]2C [Compound I-164]

Key:
1. 8.64
2. 9.18
3. 9.52

====

Target: Human GLP-1 receptor (Homo sapiens, UniProt P43220)
Construct: expressed in transfected cells
Test: Measurement of GLP-1 receptor agonist activity (cAMP assay)
Type: cell-based
Details: CHO-K1, maximum effect, cAMP increase in GLP-1 R/CHO-K1 cells; 2 nM human GLP-1 (7-36) = 100%, DMSO only = 0%; read-out: Emax
Protocol: Test Example 1: (Measurement of GLP-1 Receptor Agonist Activity) Human GLP-1 receptor stably expressing cells (hGLP-1R/CHO-K1 cells) are cultured in an α-MEM medium (Sigma) containing 10% FBS (Hyclone), 2% GlutaMAX (Gibco), 1% G418 (Nacalai Tesque), and 1% Penicillin-Streptomycin Mixed Solution (Sigma) at 37° C. under 5% CO2 conditions, and recovered by treating a 10 fold diluted 5.0 g/l-trypsin/5.3 mmol/l-EDTA solution (Nacalai Tesque) and cryopreserved. […]
Record form. Attribute: Emax. Fill in for each entry.
One number for each entry, in %.

Example entries and their recorded answers appear below.
>>> meas_value("C[C@H]1c2cc(OCc3ccc(Cl)cc3Cl)c(Cl)cc2CCN1Cc1nc2c(F)cc(C(=O)O)cc2n1C[C@@H]1CCO1 [Compound I-337]")
104
>>> meas_value("Cc1ccc(COc2nc3c(cc2C(F)(F)F)CCN(Cc2nc4c(F)cc(C(=O)O)cc4n2C[C@@H]2CCO2)C3)cc1 [Compound I-381]")
116
>>> meas_value("COc1cc(C(=O)O)cc2c1nc(CN1CCc3cc(C(F)(F)F)c(OCc4ccc(Cl)cc4Cl)nc3C1)n2C[C@@H]1CCO1 [Compound I-389]")
115
>>> meas_value("Cc1ccc(COc2nc3c(cc2C(F)(F)F)CCN(Cc2nc4c(F)cc(C(=O)O)cc4n2C[C@@H]2CCO2)[C@H]3C)cc1 [Compound I-363]")
115
>>> meas_value("C[C@H]1c2cc(OCc3ccc(Cl)cc3F)c(Cl)cc2CCN1Cc1nc2ccc(C(=O)O)nc2n1C[C@@H]1CCO1 [Compound I-315]")
94.3
>>> meas_value("COc1cc(Cl)ccc1COc1cc2c(cc1Cl)CCN(Cc1nc3ccc(C(=O)O)cc3n1C[C@@H]1CCO1)[C@H]2C [Compound I-310]")
91

Hey, can you go through the list below and give me Emax for every item?
1. C[C@H]1c2nc(OCc3ccc(F)cc3F)c(C(F)(F)F)cc2CCN1Cc1nc2ccc(C(=O)O)nc2n1C[C@@H]1CCO1 [Compound I-288]
2. COc1cc(Cl)ccc1COc1nc2c(cc1C(F)(F)F)CCN(Cc1nc3ccc(C(=O)O)nc3n1C[C@@H]1CCO1)C2 [Compound I-303]
3. Cc1ccc(COc2nc3c(cc2C(F)(F)F)CCN(Cc2nc4ccc(C(=O)O)cc4n2C[C@@H]2CCO2)C3)cc1 [Compound I-265]

Key:
115
119
100

Values compiled from patent US20240217966A1.
